Molecular target: UniProt P14416
Sequence (P14416 whole entry): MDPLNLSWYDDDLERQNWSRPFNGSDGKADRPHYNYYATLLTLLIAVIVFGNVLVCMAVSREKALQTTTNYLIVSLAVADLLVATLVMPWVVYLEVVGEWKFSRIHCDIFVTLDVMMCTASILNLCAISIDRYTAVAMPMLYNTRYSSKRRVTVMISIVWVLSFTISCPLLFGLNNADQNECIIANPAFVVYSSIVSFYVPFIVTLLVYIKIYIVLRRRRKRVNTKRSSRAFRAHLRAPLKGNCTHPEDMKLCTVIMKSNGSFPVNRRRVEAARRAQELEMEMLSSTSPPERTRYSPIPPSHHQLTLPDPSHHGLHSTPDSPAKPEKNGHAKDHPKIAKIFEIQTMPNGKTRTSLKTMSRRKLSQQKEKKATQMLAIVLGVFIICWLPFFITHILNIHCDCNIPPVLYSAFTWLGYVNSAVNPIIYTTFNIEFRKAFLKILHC
Assay: Radioligand binding [3H]-raclopride, HEK293 membranes
Settings: HEK293 cells, human D2; read-out: hD2 [3H]-Raclopride Ki ± SEM
pKi: −log10 of the molar value.
Values of pKi greater than or equal to 5 map to 1 (yes); values below map to 0 (no).

Answered cases to consult:
Cn1c(=O)c2c(nc(NCCc3ccc(O)c(O)c3)n2C)n(C)c1=O [Compound 11a]    0 (no)
CCC(C)n1c(NCCc2ccc(O)c(O)c2)nc2c1c(=O)n(C)c(=O)n2C (centres unmarked) [Compound 11g]    0 (no)
CC(C)n1c(NCCc2ccc(O)c(O)c2)nc2c1c(=O)n(C)c(=O)n2C [Compound 11d]    0 (no)
CCCCn1c(=O)c2c(nc3n2CCCN3CCc2ccc(O)c(O)c2)n(CCCC)c1=O    0 (no)
CCn1c(NCCc2ccc(O)c(O)c2)nc2c1c(=O)n(C)c(=O)n2C [Compound 11b]    0 (no)

### Prompt Hi, just wondering whether Cn1c(=O)c2c(nc3n2CCCN3CCc2ccc(O)c(O)c2)n(C)c1=O [Compound 20a] shows pKi of 5 or higher.
### Response 1 (yes)

### Prompt Hi, just wondering whether CCCCCCn1c(NCCc2ccc(O)c(O)c2)nc2c1c(=O)n(C)c(=O)n2C [Compound 11i] shows pKi of 5 or higher.
### Response 1 (yes)

### Prompt Hi, just wondering whether CCCCn1c(=O)c2c(nc(NCCc3ccc(O)c(O)c3)n2CCC)n(CCCC)c1=O shows pKi of 5 or higher.
### Response 1 (yes)

### Prompt Hi, just wondering whether CC(C)Cn1c(NCCc2ccc(O)c(O)c2)nc2c1c(=O)n(C)c(=O)n2C [Compound 11f] shows pKi of 5 or higher.
### Response 0 (no)
